- measured.target: Rho-associated protein kinase 2 (Homo sapiens) (UniProt O75116)
- Sequence (O75116 whole entry, looked up): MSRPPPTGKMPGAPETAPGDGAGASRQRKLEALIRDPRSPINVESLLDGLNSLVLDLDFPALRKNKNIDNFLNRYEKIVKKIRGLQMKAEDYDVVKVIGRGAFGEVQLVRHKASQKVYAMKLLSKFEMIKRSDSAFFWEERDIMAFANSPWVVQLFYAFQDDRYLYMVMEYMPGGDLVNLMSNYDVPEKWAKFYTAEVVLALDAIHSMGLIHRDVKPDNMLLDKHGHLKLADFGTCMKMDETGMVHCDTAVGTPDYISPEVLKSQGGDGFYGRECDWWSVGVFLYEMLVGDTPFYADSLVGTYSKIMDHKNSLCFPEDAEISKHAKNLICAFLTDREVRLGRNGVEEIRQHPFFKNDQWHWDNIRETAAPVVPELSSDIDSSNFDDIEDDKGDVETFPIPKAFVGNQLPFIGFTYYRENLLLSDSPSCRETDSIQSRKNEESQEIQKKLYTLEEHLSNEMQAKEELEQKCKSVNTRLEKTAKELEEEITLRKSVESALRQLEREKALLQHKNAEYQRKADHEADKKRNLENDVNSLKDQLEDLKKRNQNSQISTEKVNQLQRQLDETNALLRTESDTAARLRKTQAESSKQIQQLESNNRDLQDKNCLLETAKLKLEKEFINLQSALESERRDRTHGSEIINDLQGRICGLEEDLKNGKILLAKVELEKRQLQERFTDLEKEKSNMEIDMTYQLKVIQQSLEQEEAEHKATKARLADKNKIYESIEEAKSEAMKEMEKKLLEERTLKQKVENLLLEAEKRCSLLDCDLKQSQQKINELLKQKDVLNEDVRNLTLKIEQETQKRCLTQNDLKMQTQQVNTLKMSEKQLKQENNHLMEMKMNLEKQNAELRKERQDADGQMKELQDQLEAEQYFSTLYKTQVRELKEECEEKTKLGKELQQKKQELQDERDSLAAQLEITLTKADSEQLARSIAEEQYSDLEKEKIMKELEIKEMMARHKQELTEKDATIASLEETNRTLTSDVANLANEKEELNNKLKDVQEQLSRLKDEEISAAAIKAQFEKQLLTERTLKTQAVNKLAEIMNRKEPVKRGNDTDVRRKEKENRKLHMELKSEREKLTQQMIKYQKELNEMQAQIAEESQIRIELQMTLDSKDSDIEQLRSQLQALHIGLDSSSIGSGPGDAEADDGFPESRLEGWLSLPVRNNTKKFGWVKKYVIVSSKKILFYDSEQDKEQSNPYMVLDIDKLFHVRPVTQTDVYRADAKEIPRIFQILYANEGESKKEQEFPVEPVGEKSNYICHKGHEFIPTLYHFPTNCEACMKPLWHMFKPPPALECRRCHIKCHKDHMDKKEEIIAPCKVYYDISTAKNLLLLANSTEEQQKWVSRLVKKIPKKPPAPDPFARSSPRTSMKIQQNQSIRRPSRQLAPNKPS
- assay.overview: Inhibition of recombinant ROCK2 at 20 uM by [gamma-33P]ATP based assay
assay.readout: inhibition (%)
Number in %, nothing else.

Here is how some compounds turned out for inhibition.
1) Nc1ncc(-c2ccc(C(=O)NCC3CCCNC3)cc2)nc1Oc1ccc2cc[nH]c2c1 (configuration not stated)    98
2) Nc1ncc(-c2ccc(C(=O)N[C@@H]3CCNC3)cc2)nc1Oc1ccc2cc[nH]c2c1    37
3) Nc1ncc(-c2ccc(C(=O)NCC3CCNC3)cc2)nc1Oc1ccc2cc[nH]c2c1 (configuration not stated)    98

Enquiry: Item under review: Nc1ncc(-c2ccc(C(=O)NC3CCNCC3)cc2)nc1Oc1ccc2cc[nH]c2c1 . Reported inhibition?
Return: 99

Enquiry: Item under review: Nc1ncc(-c2ccc(C(=O)NCC3CCCN3)cc2)nc1Oc1ccc2cc[nH]c2c1 (configuration not stated) . Reported inhibition?
Return: 97

Enquiry: Item under review: CC(Oc1nc(-c2ccc(C(=O)NCC3CCCNC3)cc2)cnc1N)c1c(Cl)cccc1Cl (configuration not stated) . Reported inhibition?
Return: 42

Enquiry: Item under review: Nc1ncc(-c2ccc(C(=O)NCC3CCNCC3)cc2)nc1Oc1ccc2cc[nH]c2c1 . Reported inhibition?
Return: 98

----------
- measured.target: Ribosomal protein S6 kinase beta-1 (Homo sapiens)
- assay.overview: Inhibition of recombinant P70S6K at 20 uM by [gamma-33P]ATP based assay
Decision: inhibition compared against 90%; not below it gives y, below it gives n.

Check out these entries, answers already filled in.
1) Nc1ncc(-c2ccc(C(=O)NC3CCNCC3)cc2)nc1Oc1ccc2cc[nH]c2c1    y
2) Nc1ncc(-c2ccc(C(=O)NCC3CCCNC3)cc2)nc1Oc1ccc2cc[nH]c2c1 (configuration not stated)    y
3) Nc1ncc(-c2ccc(C(=O)NCC3CCCN3)cc2)nc1Oc1ccc2cc[nH]c2c1 (configuration not stated)    n
4) CC(Oc1nc(-c2ccc(C(=O)NCC3CCCNC3)cc2)cnc1N)c1c(Cl)cccc1Cl (configuration not stated)    n

Enquiry: Threshold query (inhibition >= 90%) on Nc1ncc(-c2ccc(C(=O)N[C@@H]3CCNC3)cc2)nc1Oc1ccc2cc[nH]c2c1
Return: y

----------
Listing: inhibition of selected compounds
- measured.target: Receptor-type tyrosine-protein kinase FLT3 (Homo sapiens) (UniProt P36888)
- Sequence (P36888 whole entry): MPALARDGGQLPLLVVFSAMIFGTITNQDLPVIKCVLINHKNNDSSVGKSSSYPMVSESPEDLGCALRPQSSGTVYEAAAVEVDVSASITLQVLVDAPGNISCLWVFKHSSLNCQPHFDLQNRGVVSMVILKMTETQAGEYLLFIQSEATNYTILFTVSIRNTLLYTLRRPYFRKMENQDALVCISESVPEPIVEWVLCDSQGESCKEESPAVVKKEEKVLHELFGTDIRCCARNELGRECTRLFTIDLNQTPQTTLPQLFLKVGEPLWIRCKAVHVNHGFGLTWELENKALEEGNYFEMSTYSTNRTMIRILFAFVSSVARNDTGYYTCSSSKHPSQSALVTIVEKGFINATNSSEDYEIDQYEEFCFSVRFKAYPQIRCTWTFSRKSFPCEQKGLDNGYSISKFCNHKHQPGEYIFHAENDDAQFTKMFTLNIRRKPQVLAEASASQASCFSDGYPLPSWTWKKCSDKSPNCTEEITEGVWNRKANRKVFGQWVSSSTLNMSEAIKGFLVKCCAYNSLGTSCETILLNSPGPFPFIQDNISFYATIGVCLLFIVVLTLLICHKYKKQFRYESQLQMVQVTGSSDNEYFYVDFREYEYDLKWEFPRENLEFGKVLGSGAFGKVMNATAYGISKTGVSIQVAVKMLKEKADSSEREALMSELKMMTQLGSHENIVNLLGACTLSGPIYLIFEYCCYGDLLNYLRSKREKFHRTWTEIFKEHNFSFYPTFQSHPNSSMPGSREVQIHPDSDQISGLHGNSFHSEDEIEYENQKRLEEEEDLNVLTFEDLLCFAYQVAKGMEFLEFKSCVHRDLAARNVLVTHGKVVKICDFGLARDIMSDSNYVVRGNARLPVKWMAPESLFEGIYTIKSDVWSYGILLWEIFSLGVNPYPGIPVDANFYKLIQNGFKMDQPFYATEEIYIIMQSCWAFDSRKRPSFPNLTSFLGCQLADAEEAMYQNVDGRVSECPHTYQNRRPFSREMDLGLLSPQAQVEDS
- assay.overview: Inhibition of recombinant FLT3 at 20 uM by [gamma-33P]ATP based assay

1) CC(Oc1nc(-c2ccc(C(=O)NCC3CCCNC3)cc2)cnc1N)c1c(Cl)cccc1Cl (configuration not stated)    61%

Enquiry: Item under review: Nc1ncc(-c2ccc(C(=O)NC3CCNCC3)cc2)nc1Oc1ccc2cc[nH]c2c1 . Reported inhibition?
Return: 102%

Enquiry: Item under review: Nc1ncc(-c2ccc(C(=O)NCC3CCCN3)cc2)nc1Oc1ccc2cc[nH]c2c1 (configuration not stated) . Reported inhibition?
Return: 100%

----------
- measured.target: Serine/threonine-protein kinase Chk2 (Homo sapiens, UniProt O96017)
- Sequence (O96017 whole entry): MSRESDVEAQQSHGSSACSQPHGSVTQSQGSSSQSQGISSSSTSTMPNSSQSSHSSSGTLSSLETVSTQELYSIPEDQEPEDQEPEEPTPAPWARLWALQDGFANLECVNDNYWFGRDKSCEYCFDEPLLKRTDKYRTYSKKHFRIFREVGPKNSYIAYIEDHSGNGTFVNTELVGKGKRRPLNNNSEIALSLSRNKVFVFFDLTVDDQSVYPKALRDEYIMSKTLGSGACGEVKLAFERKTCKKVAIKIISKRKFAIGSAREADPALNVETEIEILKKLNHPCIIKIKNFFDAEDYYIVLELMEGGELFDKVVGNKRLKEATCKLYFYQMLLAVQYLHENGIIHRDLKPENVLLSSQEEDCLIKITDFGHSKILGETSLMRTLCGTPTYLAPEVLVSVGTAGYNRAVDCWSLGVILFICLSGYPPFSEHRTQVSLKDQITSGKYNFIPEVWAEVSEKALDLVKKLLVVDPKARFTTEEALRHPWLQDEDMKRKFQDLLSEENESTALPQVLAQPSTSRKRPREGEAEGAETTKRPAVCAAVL
- assay.overview: Inhibition of recombinant CHK2 by [gamma-33P]ATP based assay
assay.readout: pIC50
As a rule, pIC50 stands for the negative log10 of the concentration, concentration in M.

Here is how some molecules turned out for pIC50.
1) Nc1ncc(-c2ccc(C(=O)NCC3CCNCC3)cc2)nc1Oc1ccc2cc[nH]c2c1    5.95
2) Nc1ncc(-c2ccc(C(=O)N[C@@H]3CCNC3)cc2)nc1Oc1ccc2cc[nH]c2c1    6.21
3) Nc1ncc(-c2ccc(C(=O)NC3CCNCC3)cc2)nc1Oc1ccc2cc[nH]c2c1    6.10

Enquiry: Item under review: Nc1ncc(-c2ccc(C(=O)NCC3CCNC3)cc2)nc1Oc1ccc2cc[nH]c2c1 (configuration not stated) . Reported pIC50?
Return: 6.24

Enquiry: Item under review: Nc1ncc(-c2ccc(C(=O)NCC3CCCN3)cc2)nc1Oc1ccc2cc[nH]c2c1 (configuration not stated) . Reported pIC50?
Return: 6.02

Enquiry: Item under review: CC(Oc1nc(-c2ccc(C(=O)NCC3CCCNC3)cc2)cnc1N)c1c(Cl)cccc1Cl (configuration not stated) . Reported pIC50?
Return: 5.95

Enquiry: Item under review: Nc1ncc(-c2ccc(C(=O)NCC3CCCNC3)cc2)nc1Oc1ccc2cc[nH]c2c1 (configuration not stated) . Reported pIC50?
Return: 6.05

----------
- measured.target: Serine/threonine-protein kinase Chk2 (Homo sapiens, UniProt O96017)
- assay.overview: Inhibition of recombinant CHK2 at 20 uM by [gamma-33P]ATP based assay
assay.readout: inhibition (%)
Number in %, nothing else.

1) CC(Oc1nc(-c2ccc(C(=O)NCC3CCCNC3)cc2)cnc1N)c1c(Cl)cccc1Cl (configuration not stated)    60
2) Nc1ncc(-c2ccc(C(=O)NC3CCNCC3)cc2)nc1Oc1ccc2cc[nH]c2c1    98
3) Nc1ncc(-c2ccc(C(=O)NCC3CCCNC3)cc2)nc1Oc1ccc2cc[nH]c2c1 (configuration not stated)    98
4) Nc1ncc(-c2ccc(C(=O)NCC3CCNCC3)cc2)nc1Oc1ccc2cc[nH]c2c1    97

Enquiry: Record lookup: for Serine/threonine-protein kinase Chk2 (Homo sapiens, UniProt O96017), what inhibition belongs to Nc1ncc(-c2ccc(C(=O)NCC3CCNC3)cc2)nc1Oc1ccc2cc[nH]c2c1 (configuration not stated) ?
Return: 98

Enquiry: Record lookup: for Serine/threonine-protein kinase Chk2 (Homo sapiens, UniProt O96017), what inhibition belongs to Nc1ncc(-c2ccc(C(=O)NCC3CCCN3)cc2)nc1Oc1ccc2cc[nH]c2c1 (configuration not stated) ?
Return: 98

Enquiry: Record lookup: for Serine/threonine-protein kinase Chk2 (Homo sapiens, UniProt O96017), what inhibition belongs to Nc1ncc(-c2ccc(C(=O)N[C@@H]3CCNC3)cc2)nc1Oc1ccc2cc[nH]c2c1 ?
Return: 96

----------
- measured.target: Receptor-type tyrosine-protein kinase FLT3 (Homo sapiens)
- assay.overview: Inhibition of recombinant FLT3 at 20 uM by [gamma-33P]ATP based assay
Listing: inhibition of selected compounds
The answer should read as a number with its unit following.

Here is how some compounds turned out for inhibition.
1) Nc1ncc(-c2ccc(C(=O)NCC3CCNC3)cc2)nc1Oc1ccc2cc[nH]c2c1 (centres undefined)    93%
2) Nc1ncc(-c2ccc(C(=O)NCC3CCCNC3)cc2)nc1Oc1ccc2cc[nH]c2c1 (centres undefined)    99%

Enquiry: Item under review: Nc1ncc(-c2ccc(C(=O)NCC3CCNCC3)cc2)nc1Oc1ccc2cc[nH]c2c1 . Reported inhibition?
Return: 94%

Enquiry: Item under review: Nc1ncc(-c2ccc(C(=O)N[C@@H]3CCNC3)cc2)nc1Oc1ccc2cc[nH]c2c1 . Reported inhibition?
Return: 86%
